Biological target: Short transient receptor potential channel 4 (Mus musculus) (UniProt Q9QUQ5)
Sequence (Q9QUQ5 whole entry, looked up): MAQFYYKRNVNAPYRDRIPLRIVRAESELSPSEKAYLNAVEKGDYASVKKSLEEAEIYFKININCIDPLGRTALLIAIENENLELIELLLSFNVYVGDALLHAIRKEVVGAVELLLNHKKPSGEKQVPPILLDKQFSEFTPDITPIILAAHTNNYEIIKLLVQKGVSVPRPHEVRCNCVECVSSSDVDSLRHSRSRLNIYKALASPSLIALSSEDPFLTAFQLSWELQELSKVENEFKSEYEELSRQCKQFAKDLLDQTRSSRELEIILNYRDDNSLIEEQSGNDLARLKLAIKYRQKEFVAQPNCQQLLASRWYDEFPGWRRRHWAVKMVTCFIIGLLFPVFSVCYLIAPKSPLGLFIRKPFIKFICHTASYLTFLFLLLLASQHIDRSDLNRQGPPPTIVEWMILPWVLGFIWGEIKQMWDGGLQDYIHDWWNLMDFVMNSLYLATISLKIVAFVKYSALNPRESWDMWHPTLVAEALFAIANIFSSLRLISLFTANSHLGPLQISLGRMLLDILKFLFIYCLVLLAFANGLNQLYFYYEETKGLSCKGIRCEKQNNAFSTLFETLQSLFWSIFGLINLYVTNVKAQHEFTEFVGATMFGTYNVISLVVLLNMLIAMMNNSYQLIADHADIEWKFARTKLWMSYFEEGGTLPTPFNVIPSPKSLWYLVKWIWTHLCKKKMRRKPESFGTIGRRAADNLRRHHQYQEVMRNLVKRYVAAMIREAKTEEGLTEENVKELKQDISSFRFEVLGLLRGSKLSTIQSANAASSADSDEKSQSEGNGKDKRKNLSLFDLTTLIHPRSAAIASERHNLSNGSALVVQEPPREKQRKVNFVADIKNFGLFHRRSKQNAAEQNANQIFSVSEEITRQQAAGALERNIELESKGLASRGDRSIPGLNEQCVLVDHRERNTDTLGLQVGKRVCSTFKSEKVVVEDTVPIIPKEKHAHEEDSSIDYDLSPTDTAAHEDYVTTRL
Test: blockers of DAMGO-evoked TRPC4 calcium flux – cell-based, Fluo4, HEK293 TRPC4beta/mu-opioid, confirmation (AID 2636)
Details: at 10 µM
Active and inactive are the calls of the source.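 Rule for the calls: active = calcium signal cut by more than 3 SD below the full-agonist control yet still positive, in both repeats and the earlier primary screen; inactive = the rest.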
Labels: active, inactive

Compound	Assigned class
CN1CCN(c2ccc(NC(=O)c3ccc(Br)o3)cc2)CC1	active
CCCN1CCN(C(=S)NCc2ccc(Cl)cc2)CC1	inactive
Cc1ccc(NC(=O)CNc2ccccc2CN(C)C2CCCCC2)cc1	active
COc1cccc(C(=O)OC2CCCN(C)C2)c1 (stereo unspecified)	inactive
COc1ccc(CN(C(=O)c2snc(C(N)=O)c2N)C(CC(C)C)C(=O)NC2CCCCC2)cc1 (stereo unspecified)	active
Cc1ccc(C(=O)OCCN2CCN(c3ncc(C(F)(F)F)cc3Cl)CC2)cc1	inactive
CCCCN(CC)CCNC(=O)c1ccc2c(Cl)c3c(nc2c1)CCC3	inactive
Cc1cc(N2CCC(C)CC2)nc2cccc(O)c12	active
O=C(CN1CCCCC1)N1c2ccccc2Oc2ccccc21	active
CCn1c(=O)c2cc(C(=O)N(C)c3cc(C)ccc3OC)sc2c2ccccc21	active
CCN(CC)CCn1c(=N)n(CC(O)COc2cccc(C)c2)c2ccccc21 (stereo unspecified)	active

---

Molecular target: Short transient receptor potential channel 4 (Mus musculus)
Assay: blockers of DAMGO-evoked TRPC4 calcium flux – cell-based, second round, Fluo4, HEK293 TRPC4beta/mu-opioid, 1 µM, confirmation (AID 2637)
Conditions: at 1 µM
Activity calls are given as the source filed them.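 The calls were made as follows: active = calcium signal ratio cut to more than 3 SD under the fully stimulated control mean yet still positive, in both repeats and the primary screen; inactive = the rest.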
Labels: t for active, f for inactive

Molecule	Assigned class
OCC1(Cc2ccccc2)CCN(Cc2ccc(C(F)(F)F)cc2)CC1	f
Cn1cc(CNCC2CCCO2)c(-c2ccc(Oc3ccccc3)cc2)n1 (stereo not drawn)	f
CCOC(=O)CC(NS(=O)(=O)c1ccc(OC)c(C)c1)c1cccc([N+](=O)[O-])c1 (stereo not drawn)	f
CN(C)C(CNC(=O)CCc1nc2ccccc2s1)c1ccccc1 (stereo not drawn)	t
CCc1cc(=O)oc2c(CNCc3ccccc3F)c(O)c(Cl)cc12	f
CN(C)CCNc1ccc(Cl)cc1[N+](=O)[O-]	f
COc1ccc(CCN(C)C(=O)c2cc(S(=O)(=O)N3CCCCC3)ccc2Cl)cc1OC	f
O=C1C=CC(=O)N1CCNc1ncc(C(F)(F)F)cc1Cl	f
Cc1ccc(Nc2ccc(S(=O)(=O)N3CCOCC3)cc2[N+](=O)[O-])cc1C	f
CCOCCCNCc1cc(Br)ccc1OCc1ccccc1	t
CCCCOc1ccc(Nc2cc(Cl)ccc2C(=O)O)cn1	f
O=C(Nc1cccc(Cl)c1)c1cnn2cccnc12	f
CC(Nc1nc(N2CCCC2)nc2ccccc12)c1ccccc1 (stereo not drawn)	f
O=C(Nc1ccccc1)N1CCN2C(=O)c3ccccc3C12c1ccccc1 (stereo not drawn)	t
O=C(/C=C/c1ccccc1Cl)N(c1ccccn1)C1CCCCC1	f
CCOc1ccc(CN2CCN(C(=O)c3ccccc3)CC2)cc1	f
CCOCCCn1c(=S)[nH]c2cc(C(=O)NCCCN(CC)CC)ccc2c1=O	f
Cc1cccn2c(=O)c3cc(C(=O)N(C)C)n(C)c3nc12	f
CCOC(=O)c1cc(C#N)c(N2CCCCC2)nc1-c1ccccc1	f
CCN1CCN(c2ncnc3sc(C)c(-c4ccccc4)c23)CC1	f
COc1ccc(CCn2c(=S)[nH]c3cc(C(=O)N4CCOCC4)ccc3c2=O)cc1OC	f
Cc1ccc2cc(CN(CCCN3CCOCC3)C(c3nnnn3Cc3ccco3)C(C)C)c(=O)[nH]c2c1C (stereo not drawn)	t
NC(=O)c1nsc(C(=O)N(Cc2ccccc2Cl)C(C(=O)NCC2CCCO2)c2ccc(O)cc2)c1N (stereo not drawn)	f
